Entry source: the supplement of paper PMC9694430

- Tested on: LOC_OS04G57630-cb004;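 note: purified Escherichia coli-expressed rice kinase domain construct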
- Experimental protocol: thermal shift delta Tm vs DMSO control; higher = stronger stabilization (binding)
- Measurement setup: 12.5 µM; protein concentration 2 µM
Parameter: thermal shift delta Tm

| Chemical smiles | thermal shift delta Tm |
| --- | --- |
| CNC(=O)c1cccc(-c2ccc3c(N4CCOC[C@@H]4C)nc(N4CCOC[C@@H]4C)nc3n2)c1 | -0.14 °C |
| COc1ccc(Oc2cc(NCCC(F)(F)F)c3ncc(-c4ccc(C(=O)NC5CC5)c(C)c4)n3n2)c(F)c1F | 0.38 °C |

From here, focus on the item given below.
Task item: Query the reported thermal shift delta Tm for LOC_OS04G57630-cb004; item: CC(C)(O)CNc1ncc(-c2ccnc(Nc3ccnc(Cl)c3)n2)c(CC2CC2)n1
Reply: 0.07 °C
